Assay Comment: yeast display, Sf9 membrane polyspecificity reagent, FACS + sequencing; frameworks hold sequencing errors
Recorded Endpoint: polyreactivity (PSR sort gate)

>  <Seq Text>
QVQLVESGGGLVQAGGSLRLSCAASGRIFKSYTMGWYRQAPGKERALVAGITWSGGSTYYADSVKGRFTISRDNAKNTVYLQMNSLKPDDTAVYYCATKTFYNYGFWGQGTQVTVSS

>  <Recorded Endpoint>
polyreactivity (PSR sort gate)

>  <Result>
high polyreactivity

$$$$
>  <Seq Text>
QVQLVESGGGLVQAGGILRLSCAASGRTFERNAMGWYRQSPGKEREFVAAITEIGGSTYYADSVKGRFTISRDNAKNTVYLQMNSLKPEDTAVYYCAKDGTYSPYDYWGQGTQVTVSS

>  <Recorded Endpoint>
polyreactivity (PSR sort gate)

>  <Result>
low polyreactivity

$$$$
>  <Seq Text>
QVQLVETGGGLVQAGGILRLSCAATGSIFKAYDMGWYRKAPAKERELVAAITWSGGSTYYADSVKGRFTISRHNAKNTVYLQMNSLKPEDTAVYYCAAKLGLWAYYLYDYWGQGTQVTVSS

>  <Recorded Endpoint>
polyreactivity (PSR sort gate)

>  <Result>
low polyreactivity

$$$$
>  <Seq Text>
QVQLVESGGGLVQAGGSLRLSCAASGFTIESNAMGWYRQAPGKERELVAAISASGDSTYYADSVKGRFTISRDNAKNTVYLQMNSLKPEDTAVYYCAADRYYGGWRFDHWGQGTQVTVSS

>  <Recorded Endpoint>
polyreactivity (PSR sort gate)

>  <Result>
low polyreactivity

$$$$
>  <Seq Text>
QVQLVESGGGLVQAGGSLRLSCAASGRIFIRDARGWYRPAPGKERELVAALTRGGSTYYADSVKGRFTISRDTAKNTVYLQMNSLKPEDTAVYYCAARVGYPYYYWGQGTQVTVSS

>  <Recorded Endpoint>
polyreactivity (PSR sort gate)

>  <Result>
high polyreactivity

$$$$
>  <Seq Text>
QVQLVESGGGLVQAGGSLRLSCAPSGLTFDVYAMGWYRQAPWKQRELVAAISSIGGSTYYADSVKGRFTISRDTAKNTVYVQMNSLKPEDTAVYYCAAAISLYSYDYWGQGTQVTVSS

>  <Recorded Endpoint>
polyreactivity (PSR sort gate)

>  <Result>
low polyreactivity

$$$$
>  <Seq Text>
QVQLVESGGGLVQAGGSLRLSCAASGRIFYGYTMVWYRQAPGKERELVAAISWSGGSTSYADSVKGRFTISRDNAKNTVYLQMKSMKPEDTAVYYCAVRYPGYRQYWGYTYDYWGQGTQVTVSS

>  <Recorded Endpoint>
polyreactivity (PSR sort gate)

>  <Result>
high polyreactivity

$$$$
>  <Seq Text>
QVQLVESGGGLVQAGGSLRLSCAASGFIFGRYAMGWYRQAPGKERELVAAITWSGGRTYYADSVKGRFTISRDNAKNTVFLQMNSLKPEDTAVYYCNAQGYTTYRGDYWGQGTQVTVSS

>  <Recorded Endpoint>
polyreactivity (PSR sort gate)

>  <Result>
high polyreactivity

$$$$
>  <Seq Text>
QVQLVDSSGGLVQAGGSLSLSCAASGRTFGFYAMGWYIQAPGSERELVASITWRGGRKYYADSEMGSFTISRDNAKNTCYLQMISLKPEDTAVYYCAAAYHPYQGVTGHDGGYDYWGQGTQVTVSS

>  <Recorded Endpoint>
polyreactivity (PSR sort gate)

>  <Result>
low polyreactivity

$$$$
>  <Seq Text>
QVQLVESGGGLVQAGGSLRLSCAASGSIFRTYTMGWYRQAPGKERELVAAITRSGGRTFYADSVKGRFTISRDTAKNTVYLQMHSLKPEDTAVYYCAAKRTGDYDWGQGTQVTVSS

>  <Recorded Endpoint>
polyreactivity (PSR sort gate)

>  <Result>
high polyreactivity

$$$$
>  <Seq Text>
QVQLVESGGGLVQAGGSLRLICAASGSIFLFNAMGWYRQAPGKERQLVAAISKSGGSTHYADSVKGRFTISRDNAKNTVYLQMNSLKPEDSAVYYCAARVGDLGSQKTDSVYRVYYWGQGTQVTVSS

>  <Recorded Endpoint>
polyreactivity (PSR sort gate)

>  <Result>
low polyreactivity

$$$$
